Target: SALL4 ZFC4 R900W (HT-SELEX) (Mus musculus, UniProt Q8BX22 870-940, R900W)
Sequence: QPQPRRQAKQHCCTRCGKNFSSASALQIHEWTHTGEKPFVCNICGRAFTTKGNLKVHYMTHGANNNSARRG
Experiment: HT-SELEX; high values mean tight binding
Conditions: protein: recombinant; vector His6-GST; dsDNA, one strand shown
property_label: log10 binding signal (log10 of the value in fold-change vs cycle 0)
Hi team, quick reminder: these entries are log10 of binding signal (fold-change vs cycle 0).

Guide cases for log10 binding signal, answers given:
[
  {
    "sequence": "CGAGTC",
    "log10 binding signal": -0.36
  },
  {
    "sequence": "ACTCCC",
    "log10 binding signal": -0.21
  },
  {
    "sequence": "GACGGC",
    "log10 binding signal": -0.98
  },
  {
    "sequence": "CACATG",
    "log10 binding signal": -0.06
  },
  {
    "sequence": "AGTCGG",
    "log10 binding signal": -0.44
  }
]

The recorded log10 binding signal for entry `CTATAA` equals 0.29

The recorded log10 binding signal for entry `TAGATA` equals 0.31

The recorded log10 binding signal for entry `CCGCTC` equals -0.82

The recorded log10 binding signal for entry `AAACAA` equals 0.26

The recorded log10 binding signal for entry `CGAACG` equals -0.44

The recorded log10 binding signal for entry `GATTCA` equals 0.14

The recorded log10 binding signal for entry `CCATCA` equals -0.02

The recorded log10 binding signal for entry `ACTGAC` equals -0.04

The recorded log10 binding signal for entry `AGCAAG` equals -0.08

The recorded log10 binding signal for entry `CTATTC` equals 0.16

The recorded log10 binding signal for entry `AAGATA` equals 0.35

The recorded log10 binding signal for entry `TTTAAA` equals 0.37

The recorded log10 binding signal for entry `CCATTA` equals 0.15

The recorded log10 binding signal for entry `CGGTGC` equals -0.89

The recorded log10 binding signal for entry `GGCCCA` equals -0.90

The recorded log10 binding signal for entry `GCCACA` equals -0.60

The recorded log10 binding signal for entry `CCCTGA` equals -0.24

The recorded log10 binding signal for entry `CCAAAA` equals -0.02
